target.or.system: human recombinant Dipeptidyl peptidase IV enzyme (DPP-IV) (Homo sapiens)
Construct: purchased R&D Systems Inc. of Minneapolis, Minn
Sequence (P27487 whole entry): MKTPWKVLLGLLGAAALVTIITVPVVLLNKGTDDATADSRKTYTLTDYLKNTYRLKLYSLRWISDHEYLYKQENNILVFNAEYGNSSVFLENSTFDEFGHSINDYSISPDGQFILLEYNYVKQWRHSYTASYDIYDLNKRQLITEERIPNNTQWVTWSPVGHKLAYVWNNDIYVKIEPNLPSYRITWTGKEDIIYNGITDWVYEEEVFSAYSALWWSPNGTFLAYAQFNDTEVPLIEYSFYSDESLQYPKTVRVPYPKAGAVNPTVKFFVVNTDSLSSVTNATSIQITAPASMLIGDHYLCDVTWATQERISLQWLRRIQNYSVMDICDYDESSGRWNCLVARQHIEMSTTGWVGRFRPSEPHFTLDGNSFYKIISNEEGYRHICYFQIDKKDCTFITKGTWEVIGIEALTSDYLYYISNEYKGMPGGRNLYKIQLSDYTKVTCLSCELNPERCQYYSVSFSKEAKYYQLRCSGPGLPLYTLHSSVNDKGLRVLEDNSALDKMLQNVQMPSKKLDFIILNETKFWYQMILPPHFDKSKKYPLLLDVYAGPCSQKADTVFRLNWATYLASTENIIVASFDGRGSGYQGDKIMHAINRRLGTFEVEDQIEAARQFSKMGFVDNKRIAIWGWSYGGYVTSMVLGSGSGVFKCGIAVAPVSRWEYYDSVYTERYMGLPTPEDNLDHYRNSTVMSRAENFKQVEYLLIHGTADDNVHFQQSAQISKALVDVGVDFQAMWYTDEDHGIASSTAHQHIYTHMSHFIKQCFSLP
assay.info: in-vitro DPP-IV assay (cleavage of AMC from Gly-Pro-AMC)
Type: biochemical
experimental.parameters: human recombinant DPP-IV, Gly-Pro-AMC substrate, 30° C., 30 minutes; read-out: DPP-IV inhibition using human recombinant DPP-IV enzyme, IC50
Where a name gives a salt, the structure may show the parent alone.
attribute.measured: log10 of IC50 (log10 of the value in nM)
Heads up: the numbers are on a log10 scale; they represent IC50 in nM.

N#C[C@@H]1CCCN1C(=O)CN[C@@H]1CC[C@H](Cn2nnc3ccccc32)C1	0.54

# lookup: human recombinant Dipeptidyl peptidase IV enzyme (DPP-IV) (Homo sapiens) log10 of IC50, key = N#CC1CCC(NCC(=O)N2CCC[C@H]2C#N)C1 (mixture of isomers)
2.46

# lookup: human recombinant Dipeptidyl peptidase IV enzyme (DPP-IV) (Homo sapiens) log10 of IC50, key = N#C[C@@H]1C[C@H](F)CN1C(=O)CN[C@@H]1CC[C@H](Cn2cncn2)C1 [Example-45, oxalate]
0.67

# lookup: human recombinant Dipeptidyl peptidase IV enzyme (DPP-IV) (Homo sapiens) log10 of IC50, key = N#C[C@@H]1CCCN1C(=O)CN[C@@H]1CC[C@H](Cn2cncn2)C1 [Example-39, maleate]
0.70

# lookup: human recombinant Dipeptidyl peptidase IV enzyme (DPP-IV) (Homo sapiens) log10 of IC50, key = N#C[C@@H]1CCCN1C(=O)CN[C@@H]1CC[C@H](CNC(=O)Nc2ccc(F)cc2F)C1
1.42

# lookup: human recombinant Dipeptidyl peptidase IV enzyme (DPP-IV) (Homo sapiens) log10 of IC50, key = N#C[C@@H]1CCCN1C(=O)CNC1CCC(CN2CCN(Cc3ccccc3)CC2)C1 (mixture of isomers)
1.40

# lookup: human recombinant Dipeptidyl peptidase IV enzyme (DPP-IV) (Homo sapiens) log10 of IC50, key = N#C[C@@H]1CCCN1C(=O)CN[C@@H]1CC[C@H](Cn2cnc3ccccc32)C1
0.65

###

target.or.system: human recombinant Dipeptidyl peptidase IV enzyme (DPP-IV) (Homo sapiens)
assay.info: in-vitro DPP-IV assay (cleavage of AMC from Gly-Pro-AMC)
experimental.parameters: human recombinant DPP-IV, Gly-Pro-AMC substrate, 30° C., 30 minutes; read-out: DPP-IV inhibition using human recombinant DPP-IV enzyme, IC50
Procedure: DPP-IV activity was determined by the cleavage rate of 7-amino-4-methyl coumarin (AMC) from the synthetic substrate Glycyl-Prolyl-AMC. […] Fluorescence was measured using Fluorostar with an excitation filter of 380 nm and emission filter of 460 nm. […] Test compounds dissolved in DMSO at 5-6 concentrations were tested in duplicate along with the solvent control and blank samples. Percent inhibition was calculated at each concentration with respect to the solvent control sample (no test compound added). […]
pIC50: −log10 of the molar value.
Kind request: treat 8 as inclusive, so pIC50 at 8 or higher is Fulfilled, anything lower is Not fulfilled.

N#C[C@@H]1CCCN1C(=O)CNC1CCC(C(=O)Nc2cc(F)ccc2F)C1 (mixture of isomers) [Example 73]	Not fulfilled
N#C[C@@H]1CCCN1C(=O)CNC1CCC(C(=O)NC23CC4CC(CC(C4)C2)C3)C1 (mixture of isomers) [Example 72]	Not fulfilled
N#CCC[C@H]1CC[C@@H](NCC(=O)N2C[C@@H](F)C[C@H]2C#N)C1 [Example-9]	Fulfilled
N#C[C@@H]1CCCN1C(=O)CNC1CCC(C(=O)NOCc2ccccc2)C1 (mixture of isomers) [Example-12]	Not fulfilled
N#Cc1cn(C[C@H]2CC[C@@H](NCC(=O)N3C[C@@H](F)C[C@H]3C#N)C2)c2ccccc12 [Example-64]	Fulfilled
Cc1ccc(C)n1C[C@H]1CC[C@@H](NCC(=O)N2CCC[C@H]2C#N)C1 [Example-24]	Fulfilled
N#C[C@@H]1C[C@H](F)CN1C(=O)CN[C@@H]1CC[C@H](Cn2cncn2)C1 [Example-44]	Fulfilled
N#C[C@@H]1CCCN1C(=O)CN[C@H]1CC[C@@H](Cn2cc3ccccc3n2)C1 [Example-68]	Not fulfilled

Hi team, for N#C[C@@H]1C[C@H](F)CN1C(=O)CN[C@H]1CC[C@@H](Cn2cncn2)C1 [Example-52] , is the recorded pIC50 at or above 8?
Fulfilled

Hi team, for N#Cc1ncn(CC2CCC(NCC(=O)N3CCC[C@H]3C#N)C2)c1C#N (mixture of isomers) [Example-33] , is the recorded pIC50 at or above 8?
Fulfilled
